Sourced from patent US12037324B2

biological target: UniProt P30556; assay: BRET β-arrestin2 biosensor assay, higher receptor expression (hAT1R 5 ng/well), HEK293 cells; format: cell-based
OBSERVATION_TYPE: BRET β-Arrestin2 High AT1R Expression Ymax (%)
Report the value in % with no unit label.

Please report the recorded BRET β-Arrestin2 High AT1R Expression Ymax (%) for CCCCC(=O)N(Cc1ccc(-c2cc(-c3ccccc3)ccc2-c2noc(=O)[nH]2)nc1)[C@H](C(=O)O)C(C)C [Example 434, 2,2,2-trifluoroacetate] .
96.6

Would you kindly repeat that for `CCCCC(=O)N(Cc1ccc(-c2cc(-c3ccccc3)ccc2-c2noc(=O)[nH]2)cc1)C1(C(=O)O)CCCCC1` ?
93.1

Next compound: `CCCCC(=O)N(Cc1ccc(-c2cc(Oc3cccnc3)ccc2-c2nn[nH]n2)cc1)C1(C(=O)O)CCCCC1`
45.3

Check `CCCCc1ncc(C(=O)NC2CC3(CCC3)C2)n1Cc1ccc(-c2cc(-c3ccccc3)ccc2-c2nn[nH]n2)cc1` too.
89.6

Another: `CCCCc1nc(Cl)c(C(=O)O)n1Cc1ccc(-c2cc(N3CCCC(F)(F)C3)ccc2-c2nn[nH]n2)cc1`
69.0

Now this one: `CCc1nc2c(C)cc(C)nc2n1Cc1ccc(-c2cc(-c3ccc(CO)cc3)ccc2-c2nn[nH]n2)cc1`
76.6

Now consider `CCc1nc2c(C)cc(C)nc2n1Cc1ccc(-c2cc(N3CCC(C)CC3)ccc2-c2nn[nH]n2)cc1` and answer again.
79.7

Continue with `CCc1nc2c(C)cc(C)nc2n1Cc1ccc(-c2cc(C3=CCCCC3)ccc2-c2nn[nH]n2)cc1`
94.7

Let us now turn to `CCc1nc2c(C)cc(C)nc2n1Cc1ccc(-c2cc(Oc3ncccc3F)ccc2-c2nn[nH]n2)cc1`
85.3

Same thing, different compound: `CCCCC(=O)N(Cc1ccc(-c2cc(-c3ccccn3)ccc2-c2nn[nH]n2)cc1)C1(C(=O)O)CCCCC1`
70.2

Try this compound next: `CCc1nc2c(C)cc(C)nc2n1Cc1ccc(-c2cc(-c3ccccn3)ccc2-c2nn[nH]n2)cc1`
87.5

Also check `CCCCC1=NC2(CCCC2)C(=O)N1Cc1ccc(-c2cc(-c3ccccc3)ccc2-c2nn[nH]n2)nc1`
44.8

Now the same for `CCc1nc2c(C)cc(C)nc2n1Cc1ccc(-c2cc(-c3cccc(C)c3)ccc2C(=O)O)cn1`
87.0

What do we get for `CCc1nc2c(C)cc(C)nc2n1Cc1cnc(-c2cc(-c3cccc(C)c3)ccc2C(=O)O)nc1` ?
52.0

Same question, `CCc1nc2c(C)cc(C)nc2n1Cc1ccc(-c2cc(-c3ccsn3)ccc2-c2nn[nH]n2)cc1` this time
66.3

---

target: AGTR1 (Homo sapiens, UniProt P30556); construct: host or cells: Pathunter CHO-K1 AGTR1 β-arrestin cell line (CHO-K1); assay: DiscoveRx β-arrestin2 recruitment assay (enzyme complementation, Pathunter CHO-K1 AGTR1 β-arrestin cell line); assay type: cell-based; conditions: DiscoveRx β-arrestin2 recruitment
Sequence (P30556 whole entry): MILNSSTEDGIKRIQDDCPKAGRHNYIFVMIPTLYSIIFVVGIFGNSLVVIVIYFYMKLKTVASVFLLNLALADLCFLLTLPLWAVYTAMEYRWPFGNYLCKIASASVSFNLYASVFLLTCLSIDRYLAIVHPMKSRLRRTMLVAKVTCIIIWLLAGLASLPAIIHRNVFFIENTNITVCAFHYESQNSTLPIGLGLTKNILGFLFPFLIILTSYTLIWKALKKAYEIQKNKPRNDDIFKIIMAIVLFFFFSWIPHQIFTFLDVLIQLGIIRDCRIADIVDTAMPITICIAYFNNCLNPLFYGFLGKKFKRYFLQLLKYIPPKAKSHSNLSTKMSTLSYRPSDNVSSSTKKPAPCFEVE
EC50 class ranges: low (below 30 nM), intermediate (30 nM to below 60 nM), high (60 nM or more)

Into which category would you place `CCCCn1cc(-c2ccc(-c3nnn[nH]3)c(-c3ccc(Cn4c(CC)nc5c(C)cc(C)nc54)cc3)c2)nn1` ?
intermediate

Ok, now `CCc1nc2c(C)cc(C)nc2n1Cc1ccc(-c2cc(-c3cn(CCO)nn3)ccc2-c2nnn[nH]2)cc1`
intermediate

Do the same for `CCc1nc2c(C)cc(C)nc2n1Cc1ccc(-c2cc(Oc3ccccc3F)ccc2-c2nnn[nH]2)cc1` please
intermediate

// query: `CCCCc1ncc(C(=O)NCc2cc(C(C)C)no2)n1Cc1ccc(-c2cc(-c3ccccc3)ccc2-c2nn[nH]n2)cc1`
low

How about this molecule: `CCc1nc2c(C)cc(C)nc2n1Cc1ccc(-c2cc(-c3ccccn3)ccc2C(=O)O)cc1`
high

Ok, now CCc1nc2c(C)cc(C)nc2n1Cc1ccc(-c2cc(C3CCCCO3)ccc2-c2nn[nH]n2)cc1 (single isomer, unassigned)
low

Same again, this time with `CCc1nc2c(C)cc(C)nc2n1Cc1ccc(-c2cc(-c3ccccc3)ccc2C(=O)O)nc1`
high

Also, `CCc1nc2c(C)cc(C)nc2n1Cc1ccc(-c2cc(-c3cn(Cc4ccccc4)nn3)ccc2-c2nnn[nH]2)cc1` please.
high

Please do the same for `CCCCC1=NC2(CCCC2)C(=O)N1Cc1ccc(-c2cc(-c3cncc(OC)c3)ccc2-c2nn[nH]n2)cc1` as well.
high

Proceed to `CCc1nc2c(C)cc(C)nc2n1Cc1ccc(-c2cc(-n3cnc4ccccc43)ccc2-c2nnn[nH]2)cc1`
intermediate

Same thing, different molecule: `CCCCc1nc(Cl)c(C(=O)O)n1Cc1ccc(-c2cc(-c3ccccc3)ccc2C(=O)O)cc1`
low

Same again, this time with `CCc1nc2c(C)cc(C)nc2n1Cc1ccc(-c2cc(-c3ccccc3)ccc2C(=O)O)cc1`
intermediate

Now the same for `CCc1nc2c(C)cc(C)nc2n1Cc1ccc(-c2cc(-c3ccc(C(F)(F)F)cc3)ccc2-c2nn[nH]n2)cc1`
low

Subsequent entry: `CCc1nc2c(C)cc(C)nc2n1Cc1ccc(-c2cc(-c3ccccc3C)ccc2-c2nn[nH]n2)cc1`
low

Field entry: `CCCCc1nc(Cl)c(C(=O)O)n1Cc1ccc(-c2cc(N3CC(C)(C)c4ccccc43)ccc2-c2noc(=O)[nH]2)cc1`
intermediate

Further, for `CCCCC1=NC2(CCCC2)C(=O)N1Cc1ccc(-c2cc(-c3ccccc3)ccc2-c2noc(=O)[nH]2)cc1` ?
low

Also `CCc1nc2c(C)cc(C)nc2n1Cc1ccc(-c2cc(Oc3ccccc3F)ccc2-c2noc(=O)[nH]2)cc1` ?
high

Next up: `CCc1nc2c(C)cc(C)nc2n1Cc1ccc(-c2cc(-c3ccccc3O)ccc2-c2nnn[nH]2)cn1`
low

// next record `CCc1nc2c(C)cc(C)nc2n1Cc1ccc(-c2cc(-c3ccc(C(=O)N(C)C)cc3)ccc2C(=O)O)cc1`
high

Subsequent entry: `CCCCc1ncc(C(=O)NCCO)n1Cc1ccc(-c2cc(-c3ccccc3)ccc2C(=O)O)cc1`
high

`CCc1nc2c(C)cc(C)nc2n1Cc1ccc(-c2cc(-c3cc(C)cc(C)c3)ccc2-c2nn[nH]n2)cc1` ?
low

Then `CCOc1nc2cccc(C(=O)O)c2n1Cc1ccc(-c2cc(-c3ccc(C(=O)N(C)C)cc3)ccc2C(=O)O)cc1` ?
intermediate

`CCCCC1=NC2(CCCC2)C(=O)N1Cc1ccc(-c2cc(-c3ccccc3)ccc2C(=O)O)cc1` ?
low

Now consider CCC1=NC2(CCOC2)C(=O)N1Cc1ccc(-c2cc(-c3ccccc3O)ccc2-c2nnn[nH]2)cc1 (single isomer, unassigned) [Example 170] .
high

What do we get for `CCc1nc2c(C)cc(C)nc2n1Cc1ccc(-c2cc(N3CCC(F)(F)CC3)ccc2-c2nn[nH]n2)cc1` ?
high

Entry `CCOc1nc2cccc(C(=O)O)c2n1Cc1ccc(-c2cc(Oc3cccnc3)ccc2-c2nn[nH]n2)cc1` please
low

# iterate: `CCOc1nc2cccc(C(=O)OC)c2n1Cc1ccc(-c2cc(-c3ccccc3)ccc2-c2noc(=O)[nH]2)cc1`
intermediate

---

biological target: UniProt:P30556; experiment: BRET β-arrestin2 biosensor assay, higher receptor expression (hAT1R 5 ng/well), HEK293 cells; format: cell-based; conditions: High AT1R Expression
Provide the recorded pEC50 for the entries that follow.
As a rule, pEC50 stands for the negative log10 of the concentration, concentration in M.

Record request: pEC50 value, item CCCCC(=O)N(Cc1ccc(-c2cc(-c3ccc(NC(C)=O)cc3)ccc2-c2nn[nH]n2)cc1)C1(C(=O)O)CCCCC1 [Example 291]
5.78

Now this one: CCCCc1ncc(C(=O)NCc2cc(C(C)C)no2)n1Cc1ccc(-c2cc(-c3ccccc3)ccc2-c2nn[nH]n2)cc1 [Example 363]
7.62

Try CCc1nc2c(C)cc(C)nc2n1Cc1ccc(-c2cc(Oc3cc(Cl)ccn3)ccc2-c2nn[nH]n2)cc1 [Example 251] next.
7.97

Continue with CCOc1nc2cccc(C(=O)O)c2n1Cc1ccc(-c2cc(-c3cccnc3OC)ccc2-c2noc(=O)[nH]2)cc1 [Example 329]
8.55

What about CCc1nc2c(C)cc(C)nc2n1Cc1ccc(-c2cc(N3CCC(F)(F)CC3)ccc2-c2nn[nH]n2)cc1 [Example 82] ?
6.85

What do we get for CCCCC(=O)N(Cc1ccc(-c2cc(-c3ccccc3)ccc2-c2nn[nH]n2)cc1)C(C)(C)C(=O)O [Example 268] ?
5.99

// repeat for CCc1nc2c(C)cc(C)nc2n1Cc1ccc(-c2cc(C(=O)c3ccccc3)ccc2-c2nnn[nH]2)cc1 [Example 210] and report
8.05

Again, but for CCCCc1nc(Cl)c(C(=O)O)n1Cc1ccc(-c2cc(-c3cnn(C)c3)ccc2-c2nn[nH]n2)cc1 [Example 389]
6.72

And what about the compound CCCCC(=O)N(Cc1ccc(-c2cc(N3CCCC(C)C3)ccc2-c2nn[nH]n2)cc1)[C@H](C(=O)O)C(C)C (some centres unmarked) [Example 448] ?
6.22

Same read-out for CCCCc1ncc(C(=O)NC2CCCCCC2)n1Cc1ccc(-c2cc(-c3ccccc3)ccc2-c2nn[nH]n2)cc1 [Example 362] ?
7.58

Please give the result for CCc1nc2c(C)cc(C)nc2n1Cc1ccc(-c2cc(Oc3cccnc3)ccc2-c2nnn[nH]2)cc1 [Example 257] too.
8.00

Now consider CCCCC(=O)N(Cc1ccc(-c2cc(Oc3cccnc3)ccc2-c2nn[nH]n2)cc1)[C@H](C(=O)O)C(C)C [Example 436] .
4.87

Queued: CCc1nc2c(C)cc(C)nc2n1Cc1ccc(-c2cc(-n3cc(C(C)C)nn3)ccc2-c2nnn[nH]2)cc1 [Example 227]
8.13

Repeat for the following compound: CCCCC(=O)N(Cc1ccc(-c2cc(-c3cc(C)ccn3)ccc2-c2nn[nH]n2)cc1)C1(C(=O)O)CCCCC1 [Example 295]
7.85
